The measured values listed here are drawn from PubChem BioAssay AID463076.

- Target desc: Receptor-type tyrosine-protein kinase FLT3 (Homo sapiens) (UniProt P36888)
- Sequence (P36888 whole entry, looked up): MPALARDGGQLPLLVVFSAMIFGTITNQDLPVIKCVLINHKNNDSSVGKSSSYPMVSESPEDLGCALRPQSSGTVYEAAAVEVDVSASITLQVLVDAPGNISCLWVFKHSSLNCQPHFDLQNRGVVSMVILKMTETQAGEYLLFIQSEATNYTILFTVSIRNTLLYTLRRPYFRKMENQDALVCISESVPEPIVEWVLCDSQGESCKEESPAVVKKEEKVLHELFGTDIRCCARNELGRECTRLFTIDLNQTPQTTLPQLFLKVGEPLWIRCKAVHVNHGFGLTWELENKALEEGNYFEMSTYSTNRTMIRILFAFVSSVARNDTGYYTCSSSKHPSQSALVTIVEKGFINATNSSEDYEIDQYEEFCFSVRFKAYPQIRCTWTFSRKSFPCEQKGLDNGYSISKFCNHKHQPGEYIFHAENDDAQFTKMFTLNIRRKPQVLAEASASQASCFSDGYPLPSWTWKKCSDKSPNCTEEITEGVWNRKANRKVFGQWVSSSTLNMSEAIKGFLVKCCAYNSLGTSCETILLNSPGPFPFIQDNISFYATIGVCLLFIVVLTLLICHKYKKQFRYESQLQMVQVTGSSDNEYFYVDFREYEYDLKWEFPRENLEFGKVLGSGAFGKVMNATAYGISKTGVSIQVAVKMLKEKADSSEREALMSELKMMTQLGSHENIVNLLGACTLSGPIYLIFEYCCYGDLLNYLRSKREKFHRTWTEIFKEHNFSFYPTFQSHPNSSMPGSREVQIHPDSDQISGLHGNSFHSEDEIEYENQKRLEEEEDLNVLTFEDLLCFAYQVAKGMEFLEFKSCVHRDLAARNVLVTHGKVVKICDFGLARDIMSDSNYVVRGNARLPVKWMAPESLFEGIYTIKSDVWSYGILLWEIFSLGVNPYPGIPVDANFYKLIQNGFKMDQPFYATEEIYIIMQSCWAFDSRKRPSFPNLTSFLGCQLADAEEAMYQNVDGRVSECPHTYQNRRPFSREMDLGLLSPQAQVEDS
- Assay method text: FLT3 kinase inhibition, late-stage follow-up, selectivity assay for CK1d inhibitor project, biochemical, radioactive 33P-ATP, powder samples (AID 463076)
- Reported conditions: purified FLT3, 33P-ATP Abltide filter-binding assay
Calls of active or inactive are those of the source.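 The calls were made as follows: active = compounds blocking FLT3 kinase activity with IC50 at or below 1000 nM; inactive = IC50 above 1000 nM.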
Classes to choose from: active, inactive

Before answering, review these 5 worked examples.
> print(dat)
                               entry.smiles                               target.desc   group
1  c1ccc2cc3[nH]c(CNc4nc(N5CCOCC5)nc5c4ncn5-c4ccsc4)nc3cc2c1  Receptor-type tyrosine-protein kinase FLT3 (Homo sapiens) (UniProt P36888)  active
2  O=[N+]([O-])c1cccc2[nH]c(CNc3nc(N4CCOCC4)nc4c3ncn4-c3ccsc3)nc12  Receptor-type tyrosine-protein kinase FLT3 (Homo sapiens) (UniProt P36888)  active
3  c1ccc2[nH]c(CNc3nc(N4CCOCC4)nc4c3ncn4-c3ccsc3)nc2c1  Receptor-type tyrosine-protein kinase FLT3 (Homo sapiens) (UniProt P36888)  active
4  CCOC(=O)c1cccc2[nH]c(CNc3nc(N4CCOCC4)nc4c3ncn4-c3ccsc3)nc12  Receptor-type tyrosine-protein kinase FLT3 (Homo sapiens) (UniProt P36888)  active
5  O=[N+]([O-])c1ccc2nc(CNc3nc(N4CCOCC4)nc4c3ncn4-c3ccsc3)[nH]c2c1  Receptor-type tyrosine-protein kinase FLT3 (Homo sapiens) (UniProt P36888)  active

Q) Kindly provide the recorded test outcome for the following compound: CC(C)n1cnc2c(NCc3nc4c([N+](=O)[O-])cccc4[nH]3)nc(N3CCOCC3)nc21
A) inactive

Q) Dear all, I need the recorded test outcome for FC(F)(F)c1cccc2[nH]c(CNc3nc(N4CCOCC4)nc4c3ncn4-c3ccsc3)nc12 , thank you.
A) active

Q) What is the recorded call for this compound in the test? Cc1ccnc(NC(=O)CCCOc2cc(=O)n(C)c3ccccc23)c1
A) inactive

Q) Test call, this compound: Clc1ccc2nc(CNc3nc(N4CCOCC4)nc4c3ncn4-c3ccsc3)[nH]c2c1
A) active

Q) I'd appreciate the recorded outcome for FC(F)(F)c1ccc2nc(CNc3nc(N4CCOCC4)nc4c3ncn4-c3ccsc3)[nH]c2c1 from this test.
A) active

Q) # fetch the recorded call for COc1ccc2nc(CNc3nc(N4CCOCC4)nc4c3ncn4-c3ccsc3)[nH]c2c1 here
A) active

Q) Can you look up the reported call for N#Cc1ccc2nc(CNc3nc(N4CCOCC4)nc4c3ncn4-c3ccsc3)[nH]c2c1 for me?
A) active

Q) # fetch the recorded call for Fc1ccc2nc(CNc3nc(N4CCOCC4)nc4c3ncn4-c3ccsc3)[nH]c2c1 here
A) active
